# Subject of test: Neurotensin receptor type 1 (Rattus norvegicus, UniProt P20789)
# Sequence (P20789 whole entry): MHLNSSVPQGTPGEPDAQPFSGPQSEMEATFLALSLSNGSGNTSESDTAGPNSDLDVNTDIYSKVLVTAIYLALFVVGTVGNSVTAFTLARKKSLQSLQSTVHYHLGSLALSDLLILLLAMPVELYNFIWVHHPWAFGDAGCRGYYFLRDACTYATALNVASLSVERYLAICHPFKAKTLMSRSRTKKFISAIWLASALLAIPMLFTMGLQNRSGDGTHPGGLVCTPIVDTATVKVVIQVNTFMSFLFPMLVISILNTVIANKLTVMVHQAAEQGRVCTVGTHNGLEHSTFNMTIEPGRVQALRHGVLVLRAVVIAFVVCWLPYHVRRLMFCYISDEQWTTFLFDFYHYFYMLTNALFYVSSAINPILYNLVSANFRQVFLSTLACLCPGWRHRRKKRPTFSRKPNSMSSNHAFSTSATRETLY
# Assay comment: Agonist activity at […] NTS1 in Sprague-Dawley rat ileum assessed as inhibition of carbachol-induced contraction
pEC50: −log10 of the molar value. Square brackets hold non-standard residues; d marks the D form. Peptide text beside a SMILES is read from it. Ala(SiMe3) = C[Si](C)(C)C[C@H](N)C(=O)O; NMeR = CN[C@@H](CCCNC(=N)N)C(=O)O
pEC50 values for the compounds below.

Example entries begin here.
- Compound: "CC(C)C[C@H](NC(=O)[C@H](C[Si](C)(C)C)NC(=O)[C@H](Cc1ccc(O)cc1)NC(=O)[C@@H]1CCCN1C(=O)[C@H](CCCCN)NC(=O)[C@@H](N)CCCCN)C(=O)O (H-KKPY[Ala(SiMe3)]L-OH)"
  pEC50: "< 5.00"
- Compound: "CC[C@H](C)[C@H](NC(=O)[C@H](Cc1ccc(O)cc1)NC(=O)[C@@H]1CCCN1C(=O)[C@H](CCCCN)NC(=O)[C@@H](N)CCCCN)C(=O)N[C@@H](C[Si](C)(C)C)C(=O)O (H-KKPYI[Ala(SiMe3)]-OH)"
  pEC50: 8.85

Now take the following compound into account.
Asked: Annotate the compound CN[C@@H](CCCNC(=N)N)C(=O)N[C@@H](CCCCN)C(=O)N1CCC[C@H]1C(=O)N[C@@H](Cc1ccc(O)cc1)C(=O)N[C@@H](C[Si](C)(C)C)C(=O)N[C@@H](CC(C)C)C(=O)O (H-[NMeR]KPY[Ala(SiMe3)]L-OH) with its measured pEC50.
Given back: < 5.00

----------
# Subject of test: Neurotensin receptor type 1 (Homo sapiens, UniProt P30989)
# Sequence (P30989 whole entry): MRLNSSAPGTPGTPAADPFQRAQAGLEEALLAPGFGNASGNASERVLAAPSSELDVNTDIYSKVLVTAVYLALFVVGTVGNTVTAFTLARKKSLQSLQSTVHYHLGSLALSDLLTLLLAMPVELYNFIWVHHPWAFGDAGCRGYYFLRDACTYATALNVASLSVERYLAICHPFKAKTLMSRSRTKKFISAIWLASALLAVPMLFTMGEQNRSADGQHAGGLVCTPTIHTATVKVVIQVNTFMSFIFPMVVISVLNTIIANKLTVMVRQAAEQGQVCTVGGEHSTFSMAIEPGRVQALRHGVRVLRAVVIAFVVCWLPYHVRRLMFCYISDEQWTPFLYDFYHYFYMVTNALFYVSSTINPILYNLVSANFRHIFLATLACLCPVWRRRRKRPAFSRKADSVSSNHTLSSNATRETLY
# Assay comment: Agonist activity at human NTS1 receptor expressed in CHOK1 cells co-expressing Galphaq-RlucII(121)/Gbeta1/GFP10-Ggamma1 assessed as Galpha-q stimulation incubated for 15 mins by BRET assay
# Type: cell-based, CHO-K1
Square brackets hold non-standard residues; d marks the D form. Peptide text beside a SMILES is read from it. Ala(SiMe3) = C[Si](C)(C)C[C@H](N)C(=O)O; NMeR = CN[C@@H](CCCNC(=N)N)C(=O)O
Experimental endpoint: pEC50
Please express pEC50 as -log10 of the molar concentration.

Sample answers from the record:
- Molecule: "C[Si](C)(C)C[C@H](NC(=O)[C@H](C[Si](C)(C)C)NC(=O)[C@H](Cc1ccc(O)cc1)NC(=O)[C@@H]1CCCN1C(=O)[C@H](CCCCN)NC(=O)[C@@H](N)CCCCN)C(=O)O (H-KKPY[Ala(SiMe3)][Ala(SiMe3)]-OH)"
  pEC50: 7.96
- Molecule: "CC[C@H](C)[C@H](NC(=O)[C@H](Cc1ccc(O)cc1)NC(=O)[C@@H]1CCCN1C(=O)[C@H](CCCCN)NC(=O)[C@@H](N)CCCCN)C(=O)N[C@@H](C[Si](C)(C)C)C(=O)O (H-KKPYI[Ala(SiMe3)]-OH)"
  pEC50: 8.82
- Molecule: "CC(C)C[C@H](NC(=O)[C@H](C[Si](C)(C)C)NC(=O)[C@H](Cc1ccc(O)cc1)NC(=O)[C@@H]1CCCN1C(=O)[C@H](CCCCN)NC(=O)[C@@H](N)CCCCN)C(=O)O (H-KKPY[Ala(SiMe3)]L-OH)"
  pEC50: 6.77

Asked: Please give measured pEC50 of the following entry: CN[C@@H](CCCNC(=N)N)C(=O)N[C@@H](CCCCN)C(=O)N1CCC[C@H]1C(=O)N[C@@H](Cc1ccc(O)cc1)C(=O)N[C@@H](C[Si](C)(C)C)C(=O)N[C@@H](CC(C)C)C(=O)O (H-[NMeR]KPY[Ala(SiMe3)]L-OH)
Given back: 6.69

----------
Collected EC50 values appear next to each entry.
# Subject of test: Neurotensin receptor type 1 (Homo sapiens)
# Assay comment: Agonist activity at human NTS1 receptor expressed in CHOK1 cells co-expressing hNTS1-GFP10/RlucII-beta-arrestin 2 assessed as beta-arrestin2 recruitment incubated for 15 mins by BRET assay
# Assay type: cell-based, CHO-K1
Square brackets hold non-standard residues; d marks the D form. Peptide text beside a SMILES is read from it. Ala(SiMe3) = C[Si](C)(C)C[C@H](N)C(=O)O
Field format: number, assumed nM, no unit text.

- Molecule: "CC(C)C[C@H](NC(=O)[C@H](C[Si](C)(C)C)NC(=O)[C@H](Cc1ccc(O)cc1)NC(=O)[C@@H]1CCCN1C(=O)[C@H](CCCCN)NC(=O)[C@@H](N)CCCCN)C(=O)O (H-KKPY[Ala(SiMe3)]L-OH)"
  EC50 / nM: 26.6

Asked: Please supply the value of reported EC50 for the item C[Si](C)(C)C[C@H](NC(=O)[C@H](C[Si](C)(C)C)NC(=O)[C@H](Cc1ccc(O)cc1)NC(=O)[C@@H]1CCCN1C(=O)[C@H](CCCCN)NC(=O)[C@@H](N)CCCCN)C(=O)O (H-KKPY[Ala(SiMe3)][Ala(SiMe3)]-OH)
Given back: 0.34

----------
# Subject of test: Neurotensin receptor type 1 (Homo sapiens)
# Assay comment: Displacement of [125I]-Tyr3-NT from human NTS1 receptor expressed in CHOK1 cell membranes incubated for 30 mins by gamma-counting based competitive radioligand binding assay
Square brackets hold non-standard residues; d marks the D form. Peptide text beside a SMILES is read from it. Pro(4-sila,4,4-Me2) = C[Si]1(C)CN[C@H](C(=O)O)C1; Ala(SiMe3) = C[Si](C)(C)C[C@H](N)C(=O)O; NMeR = CN[C@@H](CCCNC(=N)N)C(=O)O; hLys = NCCCCC[C@H](N)C(=O)O
Quick rule for you: IC50 under 90 nM gets criterion met, anything else gets criterion not met.

Example results:
- Compound: "CN[C@@H](CCCNC(=N)N)C(=O)N[C@@H](CCCCN)C(=O)N1CCC[C@H]1C(=O)N[C@@H](Cc1ccc(O)cc1)C(=O)N[C@@H](C[Si](C)(C)C)C(=O)N[C@@H](CC(C)C)C(=O)O (H-[NMeR]KPY[Ala(SiMe3)]L-OH)"
  Subject of test: "Neurotensin receptor type 1 (Homo sapiens)"
  Discrete label: "criterion not met"
- Compound: "CC(C)C[C@H](NC(=O)[C@H](C[Si](C)(C)C)NC(=O)[C@H](Cc1ccc(O)cc1)NC(=O)[C@@H]1C[Si](C)(C)CN1C(=O)[C@H](CCCCN)NC(=O)[C@@H](N)CCCCCN)C(=O)O (H-[hLys]K[Pro(4-sila,4,4-Me2)]Y[Ala(SiMe3)]L-OH)"
  Subject of test: "Neurotensin receptor type 1 (Homo sapiens)"
  Discrete label: "criterion not met"
- Compound: "CC(C)C[C@H](NC(=O)[C@H](C[Si](C)(C)C)NC(=O)[C@H](Cc1ccc(O)cc1)NC(=O)[C@@H]1CCCN1C(=O)[C@H](CCCCN)NC(=O)[C@@H](N)CCCCN)C(=O)O (H-KKPY[Ala(SiMe3)]L-OH)"
  Subject of test: "Neurotensin receptor type 1 (Homo sapiens)"
  Discrete label: "criterion not met"

Asked: Lab note: IC50 threshold 90 nM. Does this compound come in strictly under it? CC[C@H](C)[C@H](NC(=O)[C@H](Cc1ccc(O)cc1)NC(=O)[C@@H]1CCCN1C(=O)[C@H](CCCCN)NC(=O)[C@@H](N)CCCCN)C(=O)N[C@@H](C[Si](C)(C)C)C(=O)O (H-KKPYI[Ala(SiMe3)]-OH)
Given back: criterion met

Asked: Determine whether this compound shows IC50 lower than 90 nM (ties excluded): C[Si](C)(C)C[C@H](NC(=O)[C@H](C[Si](C)(C)C)NC(=O)[C@H](Cc1ccc(O)cc1)NC(=O)[C@@H]1CCCN1C(=O)[C@H](CCCCN)NC(=O)[C@@H](N)CCCCN)C(=O)O (H-KKPY[Ala(SiMe3)][Ala(SiMe3)]-OH)
Given back: criterion met
